# maps each entry to its growth
Test system: RXF 393 renal
Assay: NCI-60 one-dose screen, 48 h (100 = growth as untreated, 0 = no growth, -100 = all killed)
Conditions: 10 µM
The panel holds about 83,000 compounds, 20% with a hit somewhere; the sample as a whole holds those more often. Activity calls are given as the source filed them. Rule for the calls: active = growth percent below 10; inactive = the rest.
measured-endpoint: growth

compound	measured-endpoint	endpoint-value
COc1cccc(/C=N/NC(=O)c2ccc3nc(-c4ccc(Cl)cc4)[nH]c3c2)c1O	growth	-96.5% (active)
O=C(c1ccccc1)n1ccc(-c2cc3cc(Br)ccc3oc2=O)n1	growth	45.2% (inactive)
CN(C)c1cccc2c(S(=O)(=O)Nc3cccc(-c4csc(NC(=O)CCCCCN5CCN(c6cc7c(cc6F)C(=O)N(C6CCC(=O)NC6=O)C7=O)CC5)n4)c3)cccc12 (centres undefined)	growth	89.7% (inactive)
CN1C(=O)/C(=C/c2nccs2)SC1=S	growth	103% (inactive)
